Where do the numbers come from? From patent US20230242651A1.

So I've got a bunch of binders here, and I need their Ratio (capped/uncapped) of KD values.
# system: T1, human interleukin-23 receptor (IL23R) (human, UniProt Q5VWK5 24-355, limits assumed)
# T1 construct: also called human IL23R
# T1 sequence (looked up): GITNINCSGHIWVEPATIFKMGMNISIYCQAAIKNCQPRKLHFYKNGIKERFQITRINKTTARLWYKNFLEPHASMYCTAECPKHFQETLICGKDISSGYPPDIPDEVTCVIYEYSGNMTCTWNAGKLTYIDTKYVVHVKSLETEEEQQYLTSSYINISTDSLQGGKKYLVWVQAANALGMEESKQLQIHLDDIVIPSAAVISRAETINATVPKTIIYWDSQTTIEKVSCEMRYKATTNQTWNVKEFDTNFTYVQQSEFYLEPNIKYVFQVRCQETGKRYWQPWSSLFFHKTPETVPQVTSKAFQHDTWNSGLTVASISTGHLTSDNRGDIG
# experiment_description: SPR; KD of the capped scFv over KD of its uncapped counterpart
Answers are plain numbers.

binder	Ratio (capped/uncapped) of KD
Vκ1/VH3 consensus λ-capped, human IL23R specific scFv (scFv, scFv VL-linker-VH, made in E. coli; also called Vκ1VH3 capped) scFv: DIQMTQSPSSLSASVGDRVTITCQASENIYSFLAWYQQKPGKAPKLLIYSASKLAAGVPSRFSGSGSGTDFTLTISSLQPEDFATYYCQQTNRYSNPDIYNVFGGGTKLTVLGGGGGSGGGGSGGGGSGGGGSEVQLVESGGGLVQPGGSLRLSCAASGIDFNSNYYMCWVRQAPGKGLEWVSCIYVGSHVNTYYANWAKGRFTISRDNSKNTLYLQMNSLRAEDTAVYYCATSGSSVLYFKFWGQGTLVTVSS	0.4
Vκ2/VH3 consensus λ-capped, human IL23R specific scFv (scFv, scFv VL-linker-VH, made in E. coli; also called Vκ2VH3 capped) scFv: DIVMTQSPLSLPVTPGEPASISCQASENIYSFLAWYLQKPGQSPQLLIYSASKLAAGVPDRFSGSGSGTDFTLKISRVEAEDVGVYYCQQTNRYSNPDIYNVFGGGTKLTVLGGGGGSGGGGSGGGGSGGGGSEVQLVESGGGLVQPGGSLRLSCAASGIDFNSNYYMCWVRQAPGKGLEWVSCIYVGSHVNTYYANWAKGRFTISRDNSKNTLYLQMNSLRAEDTAVYYCATSGSSVLYFKFWGQGTLVTVSS	1.7

Below are some binders; for each one, tell me its Ratio (capped/uncapped) of KD.
1. Vκ3/VH2 consensus λ-capped, human IL23R specific scFv (scFv, scFv VL-linker-VH, made in E. coli; also called Vκ3VH2 capped) scFv: DIVLTQSPATLSLSPGERATLSCQASENIYSFLAWYQQKPGQAPRLLIYSASKLAAGVPARFSGSGSGTDFTLTISSLEPEDFAVYYCQQTNRYSNPDIYNVFGGGTKLTVLGGGGGSGGGGSGGGGSGGGGSQVQLKESGPALVKPTQTLTLTCTFSGIDFNSNYYMCWIRQPPGKALEWLACIYVGSHVNTYYANWAKGRLTISKDTSKNQVVLTMTNMDPVDTATYYCATSGSSVLYFKFWGQGTLVTVSS
2. Vκ3/VH5 consensus λ-capped, human IL23R specific scFv (scFv, scFv VL-linker-VH, made in E. coli; also called Vκ3VH5 capped) scFv: DIVLTQSPATLSLSPGERATLSCQASENIYSFLAWYQQKPGQAPRLLIYSASKLAAGVPARFSGSGSGTDFTLTISSLEPEDFAVYYCQQTNRYSNPDIYNVFGGGTKLTVLGGGGGSGGGGSGGGGSGGGGSEVQLVQSGAEVKKPGESLKISCKGSGIDFNSNYYMCWVRQMPGKGLEWMGCIYVGSHVNTYYANWAKGQVTISADKSISTAYLQWSSLKASDTAMYYCATSGSSVLYFKFWGQGTLVTVSS
3. Vκ3/VH1A consensus λ-capped, human IL23R specific scFv (scFv, scFv VL-linker-VH, made in E. coli; also called Vκ3VH1A capped) scFv: DIVLTQSPATLSLSPGERATLSCQASENIYSFLAWYQQKPGQAPRLLIYSASKLAAGVPARFSGSGSGTDFTLTISSLEPEDFAVYYCQQTNRYSNPDIYNVFGGGTKLTVLGGGGGSGGGGSGGGGSGGGGSQVQLVQSGAEVKKPGSSVKVSCKASGIDFNSNYYMCWVRQAPGQGLEWMGCIYVGSHVNTYYANWAKGRVTITADESTSTAYMELSSLRSEDTAVYYCATSGSSVLYFKFWGQGTLVTVSS
4. Vκ1/VH2 consensus λ-capped, human IL23R specific scFv (scFv, scFv VL-linker-VH, made in E. coli; also called Vκ1VH2 capped) scFv: DIQMTQSPSSLSASVGDRVTITCQASENIYSFLAWYQQKPGKAPKLLIYSASKLAAGVPSRFSGSGSGTDFTLTISSLQPEDFATYYCQQTNRYSNPDIYNVFGGGTKLTVLGGGGGSGGGGSGGGGSGGGGSQVQLKESGPALVKPTQTLTLTCTFSGIDFNSNYYMCWIRQPPGKALEWLACIYVGSHVNTYYANWAKGRLTISKDTSKNQVVLTMTNMDPVDTATYYCATSGSSVLYFKFWGQGTLVTVSS

1. 0.2
2. 1.6
3. 2
4. 0.3

Below are some binders; for each one, tell me its Ratio (capped/uncapped) of KD.
1. Vκ3/VH1B consensus λ-capped, human IL23R specific scFv (scFv, scFv VL-linker-VH, made in E. coli; also called Vκ3VH1B capped) scFv: DIVLTQSPATLSLSPGERATLSCQASENIYSFLAWYQQKPGQAPRLLIYSASKLAAGVPARFSGSGSGTDFTLTISSLEPEDFAVYYCQQTNRYSNPDIYNVFGGGTKLTVLGGGGGSGGGGSGGGGSGGGGSQVQLVQSGAEVKKPGASVKVSCKASGIDFNSNYYMCWVRQAPGQGLEWMGCIYVGSHVNTYYANWAKGRVTMTRDTSISTAYMELSSLRSEDTAVYYCATSGSSVLYFKFWGQGTLVTVSS
2. Vκ3/VH3 consensus λ-capped, human IL23R specific scFv (scFv, scFv VL-linker-VH, made in E. coli; also called Vκ3VH3 capped) scFv: DIVLTQSPATLSLSPGERATLSCQASENIYSFLAWYQQKPGQAPRLLIYSASKLAAGVPARFSGSGSGTDFTLTISSLEPEDFAVYYCQQTNRYSNPDIYNVFGGGTKLTVLGGGGGSGGGGSGGGGSGGGGSEVQLVESGGGLVQPGGSLRLSCAASGIDFNSNYYMCWVRQAPGKGLEWVSCIYVGSHVNTYYANWAKGRFTISRDNSKNTLYLQMNSLRAEDTAVYYCATSGSSVLYFKFWGQGTLVTVSS
3. Vκ3/VH4 consensus λ-capped, human IL23R specific scFv (scFv, scFv VL-linker-VH, made in E. coli; also called Vκ3VH4 capped) scFv: DIVLTQSPATLSLSPGERATLSCQASENIYSFLAWYQQKPGQAPRLLIYSASKLAAGVPARFSGSGSGTDFTLTISSLEPEDFAVYYCQQTNRYSNPDIYNVFGGGTKLTVLGGGGGSGGGGSGGGGSGGGGSQVQLQESGPGLVKPSETLSLTCTVSGIDFNSNYYMCWIRQPPGKGLEWIGCIYVGSHVNTYYANWAKGRVTISVDTSKNQFSLKLSSVTAADTAVYYCATSGSSVLYFKFWGQGTLVTVSS

1: 0.4; 2: 0.6; 3: 0.9
